Tested on: Saccharomyces cerevisiae
test_summary: transcriptional activation domain activity (GFP:mCherry ratio, weighted mean of sorted bins, harmonized to initial dataset scale) (arbitrary fluorescence ratio units); higher = stronger transcriptional activation
condition_label: beta-estradiol 1 µM; induction time 4 h
Consider the following sequences and their measured transcriptional activation domain activity readings.

Example sequences with recorded transcriptional activation domain activity:
KQRKAELIHHVVPLAVAAAFSIFLSGEDLEGPRIYHSMASLKVLRRLVAVISS
54400
MLRLLFWYLLIFVCLFCSSSPSYLSIFCLFFLCLIFIPSSSYILLPFLFLTLY
37500
LYILLVFPILLLMMLHSLVTFLYVRAIDPLYGSVPINLHLDKIVWVATFAGAF
63200
MPRPFSFFFSFLLFLLFFFSIFFIFLFLLFFFLVKGIWTTYKYVLVTCLYLVI
32700
KQYCVRPNSGRIEAGKEVEVQVLLQAMKEDPPPDARCRDKFLVQSVAVTADQE
37200
DVDWWNVSSSETTFDAASLPLDVWDPLLPHDTGLSEIEVTTCWLDPWIIPFIT
132000
MGLGVLYHLSLLFPSFSFFYLSSSFPPFFFFFLLLWLFPISCLGFLVLFWTGS
61300
HNTHKELSEQAVIDSFHVLCFSVGTIKNKPMIVYLVRQGPAIWLTMCTLNDLN
27200

stdin: Any idea what transcriptional activation domain activity was measured for "RWCARCMLLTATLHMGYFFSAWAPYDYIGYQLKNNKIVWKGLAAWCTLVWIVF" ?
stdout: 93300

* * *

# Lookup of reported transcriptional activation domain activity keyed by entry
Tested on: Saccharomyces cerevisiae
test_summary: transcriptional activation domain activity (GFP:mCherry ratio, weighted mean of sorted bins, harmonized to initial dataset scale) (arbitrary fluorescence ratio units); higher = stronger transcriptional activation
condition_label: beta-estradiol 1 µM; induction time 4 h
No unit in the answer, only the number.

Example entries and their recorded answers appear below.
LQTYMRSLEWTILTCSVIEIIEKLKMAPENMHELSPLCVKLIIKFCLTEILSY
43400
ARWSVAKVFYILGRYYGLFYMIVQLYISLTLDLALNVQRLLLVLDLVWRCCLY
54000
TGGLAELQDTLDDARASFAYVRVKYSNDKESQREKFILIVWIGKSVKVMRRAK
33600

Consider the additional sequence presented here.
stdin: What measured transcriptional activation domain activity goes with "CDAPKLGLSGATLFEMIRFLDLYQGDWDSFLSQILVHAQIIRVLREALLILTV" ?
stdout: 65300

* * *

Measured transcriptional activation domain activity, listed per entry.
System: Saccharomyces cerevisiae
test_summary: transcriptional activation domain activity (GFP:mCherry ratio, weighted mean of sorted bins, harmonized to initial dataset scale) (arbitrary fluorescence ratio units); higher = stronger transcriptional activation
condition_label: beta-estradiol 1 µM; induction time 4 h
Just the number, please, no unit attached.

FIQLVHLWRLILNYGPTGPFNIRMPSHLTWVVIKQHIQQYFFRCLCLLNKDGA
49100

stdin: May I ask what transcriptional activation domain activity has been recorded for "EEDNHSGDDNEDDHDSSGVDDDHGGGGDEDDGDGGEGDGGDVMQLYFIHNIIL" ?
stdout: 37400

stdin: For the sequence "FFRRALNFLFDIALVPMIVCSSYAIFEVPSNVFLKRLRPSLWLSLLMLLWGIM" , what transcriptional activation domain activity is on record?
stdout: 69000

stdin: Which transcriptional activation domain activity is listed for "IKVQYKGGLIGHQFKDLAQIMSFILYDLGPDTLIECWVRLGWFMSLLWYPKIQ" ?
stdout: 58700

stdin: Form field: reported transcriptional activation domain activity of "MGEEDAKVGAGPALQVIVLGSGGGPQENNVTALLVRSVNSNWARGSMLALDAG"
stdout: 36500

stdin: Reported transcriptional activation domain activity, sequence "MSLRRSCLIFRWHVFMLLLMLFVRTWLVRLLVFLVFVVLMVRLLSLFPPFPLS" : ____
stdout: 32200

* * *

System: Saccharomyces cerevisiae
test_summary: transcriptional activation domain activity (GFP:mCherry ratio, weighted mean of sorted bins, harmonized to initial dataset scale) (arbitrary fluorescence ratio units); higher = stronger transcriptional activation
condition_label: beta-estradiol 1 µM; induction time 4 h
fulfilled means recorded transcriptional activation domain activity is 40000 or above; not fulfilled means it is below 40000.

stdin: Does transcriptional activation domain activity meet or surpass 40000 for "MDDTDSSAAGGARWIVVSTGGRAQSPEDEAGLRRVKGACRARQNKSKNAILIH" ?
stdout: fulfilled

* * *

Tested on: Saccharomyces cerevisiae
test_summary: transcriptional activation domain activity (GFP:mCherry ratio, weighted mean of sorted bins, harmonized to initial dataset scale) (arbitrary fluorescence ratio units); higher = stronger transcriptional activation
condition_label: beta-estradiol 1 µM; induction time 4 h
readout: transcriptional activation domain activity
Just the number, please.

SDKKAGNDKEEKKEEKKADGSEEKGKKVKDAEKEKEDKKSQQSEKKADDNGDK
25000
LLVTLMQVPDTDQVVLFNKVLSVIVLVMAHHHELGGPRFDQRPFLRLFSSILA
43800
YMYSAFMRFFILGWPSYLVVVASIAVVLLLHILYFLVQLQLKNIFLLLLHCFA
60400
LQLYLSSHHREMLVDIWDRLWPWMVFFHVNRGCIADPFMLRPHPCFNLLHFIV
65600

Moving on to another sequence below.
stdin: Hi! What's the reported transcriptional activation domain activity for "SKHRRRHRSSSRERHRHRERDGEPSSSRHRSRRDRSRSKDRSKKEESHRSHRS" on Saccharomyces cerevisiae?
stdout: 24500

* * *

Tested on: Saccharomyces cerevisiae
test_summary: transcriptional activation domain activity (GFP:mCherry ratio, weighted mean of sorted bins, harmonized to initial dataset scale) (arbitrary fluorescence ratio units); higher = stronger transcriptional activation
condition_label: beta-estradiol 1 µM; induction time 4 h
readout: transcriptional activation domain activity
// keep it numeric: no unit symbol after the value

Consider the worked cases shown below.
DKPIAAKKPSAQRKRKVKLESDADSSGDDQPIVKKPAAKKPRASKAKKEEPAS
23100
ESVSESESASASESAAEEASAAPEEDAMWSNIMKKFARRDEEESVSESASASE
54900
WVMYVIFITVGWYAMVTGQSIVLYSRLHLVVNSIKVLRFVLILICVDVVILHV
67500
PKRRLGVAVTWTGLTLLLLLLLLLLPSLIILPSFAACFWYIYWGILRISFFFY
26100
KLKEKNKKRKRGEEVSDDEEEGPKDDEPKEKKAKKEEEHGVWVGNLAFATSQD
36700

stdin: Would you kindly share the measured transcriptional activation domain activity for "TTWLAHSKKKNCDVCKHPYSFTKVYATDMPTRLPPVLLLRRIAQQSFFAMVFA" ?
stdout: 44800

stdin: // lookup transcriptional activation domain activity for "ILLEVLGKVRGDHTPKRQETSVQGIRRRFRDDLAFLCEYDKGGIACTAIGIEE"
stdout: 12500

stdin: Tell me the measured transcriptional activation domain activity of "RLWCFSRGFMLVNYNVLVLSCQLAWSSEFLMSFWTFVFVLILMLLYYFVWAHK" , please.
stdout: 43700

stdin: Which transcriptional activation domain activity value belongs to "MLPDEVSPWFQEVFIPTLLAYCGTFQHPWDLPQPFEDIIAELWPFVFPLSLPY" ?
stdout: 68000

stdin: Param item = "TNPAAAVAAAVAAKKTDTEEETTPKEDKAEEAKPEEEKKEEKKEEKAAAKSRS" ; retrieve measured transcriptional activation domain activity.
stdout: 33900

stdin: Can you look up the measured transcriptional activation domain activity of "MLCIPFCVLFCVVMGLINYGAFVDPCFLSFYVLLSTLLQLPSSFLPFFLFLPP" for me?
stdout: 66900

* * *

Tested on: Saccharomyces cerevisiae
test_summary: transcriptional activation domain activity (GFP:mCherry ratio, weighted mean of sorted bins, harmonized to initial dataset scale) (arbitrary fluorescence ratio units); higher = stronger transcriptional activation
condition_label: beta-estradiol 1 µM; induction time 4 h
Catalogue of transcriptional activation domain activity readings, one per entry.

Example sequences with recorded transcriptional activation domain activity:
MGSLLLFMGIDEGSFLCGFFFSIFFLLLAFFTSYGCFCDKFFFLLYLLLLLRK
44300
ANRRMSLVCFLFIVVRYVSIAALVLNGVGFYGTMFDMDSCTHFRLAPPVTKMV
44900
LKIYLLNPLHMTRFADLLYQGAIMNRVIQPYESHLQYLLQWMCDYNLYGCGYI
75800
MGCDVVGCDVVGFLFFLFFFILFLGLLVCWLAGWHVCWVFWFLVFVLGGLGGL
48200
RIVIPIRLVLLVFVTMASYLLFAMIIYACQNEWLYPFLSWDQGPVAVLWYLLL
42800

stdin: Would you mind telling me what transcriptional activation domain activity value was observed for "FLVAFLLMCLHSPDKSTVAMLILGVFSLLLLLFWAASLSFDGQPSKYGWLLRH" ?
stdout: 50200

stdin: Entry under review: "DNDDDGETAAGGRLAHLLQILVCNAIYSFEPLLNCSQDVNNVLVVVTRYYGGI" . Reported transcriptional activation domain activity?
stdout: 57500

stdin: Requested read-out: transcriptional activation domain activity. Entry: "ACVALVVLFADSLDDLIPGWGIVAWKIVCGFILVPLGFLPLRLLSFTSILGVM"
stdout: 58500

stdin: What does the record list as transcriptional activation domain activity for "ESEDEGRDTTHDSDNEGDGHDANHGSENEGEGHDTTHDSKIEGAGRDAIRGSH" ?
stdout: 8090

stdin: Recorded transcriptional activation domain activity for "LRKSQDRLWAERPWYFYPMYFNEHGNGIFPEVVHLNDAVVIGVLHYYLIQVLL" , please?
stdout: 46400

stdin: I'd like to know its transcriptional activation domain activity. The sequence in question is "EARRSTREREREEGKSSGGGKGRRGRSGKPRGGGRGAGASGANPGPGAAAGAE"
stdout: 29100

stdin: Give its transcriptional activation domain activity value. Item: "MSSHDGYRTRRTPQACVACRRRKTKCDGARPRCRHCASRHRQCVWPDVAEGAS"
stdout: 39900
